Record form. Attribute: GI50. Fill in for each entry.
# System: T-47D
# assaySummary: NCI-60 SRB screen: breast cancer T-47D
# Format: cell-based, human
# conditionParameters: Homo sapiens, T47D; T-47D; five concentrations, 48 h, SRB; read-out: GI50
# number only, unit µM dropped from output

## Input Lab note: need GI50 with T-47D for entry `C=C(C)[C@@H]1CC[C@]2(C(=O)NCCCN)CC[C@]3(C)[C@H](CC[C@@H]4[C@@]5(C)CCC(=O)C(C)(C)[C@@H]5CC[C@]43C)[C@@H]12` , please look it up.
## Output 13.1

## Input Test system T-47D; read-out GI50; what value for `C=C(C)[C@@H]1CC[C@]2(C(=O)NCCNCCNCCN)CC[C@]3(C)[C@H](CC[C@@H]4[C@@]5(C)CCC(=O)C(C)(C)[C@@H]5CC[C@]43C)[C@@H]12` ?
## Output 7.52

## Input Lab request: please report GI50 under test system T-47D for `C=C(C)[C@@H]1CC[C@]2(C(=O)NCCNCCNCCN)CC[C@]3(C)[C@H](CC[C@@H]4[C@@]5(C)CC[C@H](O)C(C)(C)[C@@H]5CC[C@]43C)[C@@H]12`
## Output 10.9

## Input // fetch T-47D GI50 for CC(=O)OCC12CCC(C(C)C(N)=O)C1C1CCC3C4(C)CCC(OC(C)=O)C(C)(C)C4CCC3(C)C1(C)CC2 (centres unmarked)
## Output 2.91

## Input Please tell me: GI50 of `C=C(C)[C@@H]1CC[C@]2(C(=O)OC)CC[C@]3(C)[C@H](CC[C@@H]4[C@@]5(C)CCC(=NOCCC(=NOCCC#N)NCCC#N)C(C)(C)[C@@H]5CC[C@]43C)[C@@H]12` , system T-47D?
## Output 3.47

###

# Test system: SK-OV-3
# assaySummary: NCI-60 SRB screen: ovarian cancer SK-OV-3
# Assay type: cell-based, human
# conditionParameters: Homo sapiens; SK-OV-3; five concentrations, 48 h, SRB; read-out: GI50
reportedEndpoint: GI50 (µM)
Provide the reading as a plain figure in µM.

## Input Form: Entry = `C=C(C)[C@@H]1CC[C@]2(C(=O)NCCNCCNCCN)CC[C@]3(C)[C@H](CC[C@@H]4[C@@]5(C)CCC(=O)C(C)(C)[C@@H]5CC[C@]43C)[C@@H]12` | System = SK-OV-3 | GI50 = ____
## Output 10.6

## Input Give SK-OV-3 GI50 for `C=C(C)[C@@H]1CC[C@]2(C(=O)NCCNCCNCCN)CC[C@]3(C)[C@H](CC[C@@H]4[C@@]5(C)CC[C@H](O)C(C)(C)[C@@H]5CC[C@]43C)[C@@H]12`
## Output 17.5

## Input What is its GI50 for SK-OV-3? Entry: `C=C(C)[C@@H]1CC[C@]2(C(=O)OC)CC[C@]3(C)[C@H](CC[C@@H]4[C@@]5(C)CCC(=NOCCC(=NOCCC#N)NCCC#N)C(C)(C)[C@@H]5CC[C@]43C)[C@@H]12`
## Output 10.8

## Input Quick check: GI50 on SK-OV-3, item CC(=O)OCC12CCC(C(C)C(N)=O)C1C1CCC3C4(C)CCC(OC(C)=O)C(C)(C)C4CCC3(C)C1(C)CC2 (centres unmarked) ?
## Output 13.4

## Input Reported GI50 for SK-OV-3, given `C=C(C)[C@@H]1CC[C@]2(C(=O)NCCCN)CC[C@]3(C)[C@H](CC[C@@H]4[C@@]5(C)CCC(=O)C(C)(C)[C@@H]5CC[C@]43C)[C@@H]12` ?
## Output 17.7
